System: Saccharomyces cerevisiae EBY 100
Experiment: Chequerboard titration test (MIC, FICI) against Saccharomyces cerevisiae EBY 100
Assay type: cell-based
Settings: S cerevisiae EBY 100, antifungal combined with PHMB
Label TRUE when FICI >= 0.5; otherwise FALSE.

compound="CC(=O)N1CCN(c2ccc(OCC3COC(Cn4ccnc4)(c4ccc(Cl)cc4Cl)O3)cc2)CC1 (centres unmarked)" qualitative_label=FALSE
compound="C[C@@H]1[C@H](O)[C@@H](C)/C=C/C=C/CC/C=C/C=C/C=C/C=C/C(O[C@H]2O[C@H](C)[C@@H](O)[C@H](N)[C@@H]2O)CC2O[C@](O)(CC(O)C(O)CCC(O)CC(O)CC(O)CC(=O)O[C@H]1C)CC(O)C2C(=O)O (some centres unmarked)" qualitative_label=TRUE
compound=COc1ccc2cc3[n+](cc2c1OC)CCc1cc2c(cc1-3)OCO2 qualitative_label=TRUE
compound=CN(C/C=C/C#CC(C)(C)C)Cc1cccc2ccccc12 qualitative_label=FALSE
